test system: Escherichia coli TOP10; experiment: shrunken log2 fold change of peptide-encoding DNA abundance (4.5 h post-induction vs induction); higher = less antimicrobial activity (less host growth inhibition); details: time post-induction: 4.5 h; library: site-saturation at positions 5, 18, 19, 20;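 also: peptides expressed intracellularly from a pBAD plasmid library in pooled LB shake-flask culture, induced with 0.3% L-arabinose, DNA abundance read by NGS, three biological replicates, DESeq2 with apeglm shrinkage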
Some sequences, each annotated with its measured shrunken log2 fold change.
Quantity kind: shrunken log2 fold change

>>> experimental_value("RRIRVRPPRLPRPRPRPIDKPRP")
-0.471
>>> experimental_value("RRIRHRPPRLPRPRPRPLIEPRP")
-0.106
>>> experimental_value("RRIRCRPPRLPRPRPRPHLRPRP")
0.144
>>> experimental_value("RRIRARPPRLPRPRPRPFHRPRP")
0.206
>>> experimental_value("RRIRMRPPRLPRPRPRPCLKPRP")
0.12
>>> experimental_value("RRIRLRPPRLPRPRPRPFNHPRP")
-0.249
>>> experimental_value("RRIRRRPPRLPRPRPRPRTMPRP")
0.221
>>> experimental_value("RRIRVRPPRLPRPRPRPMGNPRP")
-0.0915
>>> experimental_value("RRIRHRPPRLPRPRPRPFNNPRP")
-0.159
>>> experimental_value("RRIRTRPPRLPRPRPRPHKGPRP")
0.0731
>>> experimental_value("RRIRMRPPRLPRPRPRPVSMPRP")
0.382
>>> experimental_value("RRIRIRPPRLPRPRPRPTMTPRP")
-0.0629
>>> experimental_value("RRIRGRPPRLPRPRPRPVHRPRP")
-0.0492
>>> experimental_value("RRIRLRPPRLPRPRPRPQINPRP")
-0.506
>>> experimental_value("RRIRDRPPRLPRPRPRPPWKPRP")
0.141
>>> experimental_value("RRIRLRPPRLPRPRPRPKLRPRP")
-0.00715
>>> experimental_value("RRIRYRPPRLPRPRPRPPWGPRP")
-0.0336
>>> experimental_value("RRIRDRPPRLPRPRPRPLKEPRP")
-0.277
>>> experimental_value("RRIRMRPPRLPRPRPRPECKPRP")
0.0491
>>> experimental_value("RRIRSRPPRLPRPRPRPEHMPRP")
-0.391
>>> experimental_value("RRIRLRPPRLPRPRPRPVDIPRP")
-0.183
>>> experimental_value("RRIRERPPRLPRPRPRPNNKPRP")
-0.849
>>> experimental_value("RRIRQRPPRLPRPRPRPKSFPRP")
0.0406
>>> experimental_value("RRIRIRPPRLPRPRPRPDYVPRP")
0.012
>>> experimental_value("RRIRERPPRLPRPRPRPREKPRP")
0.354
>>> experimental_value("RRIRQRPPRLPRPRPRPMYMPRP")
-0.0317
>>> experimental_value("RRIRQRPPRLPRPRPRPWRQPRP")
0.029
>>> experimental_value("RRIRYRPPRLPRPRPRPTEVPRP")
-0.016
>>> experimental_value("RRIRHRPPRLPRPRPRPHLPPRP")
-0.0497
>>> experimental_value("RRIRNRPPRLPRPRPRPYILPRP")
-1.07
>>> experimental_value("RRIRIRPPRLPRPRPRPAQFPRP")
0.0396
>>> experimental_value("RRIRPRPPRLPRPRPRPDKQPRP")
0.0524
